Every entry's value here was drawn from ChEMBL document CHEMBL5724806.

- Measurement notes: The drug is tested on Bacteroides fragilis strain: DSM2151 for biotransformation under anaerobic condition. The drug concentrations were measured over 6 timepoints collected between 0 and 12 hours of incubation by liquid-chromatography-coupled mass spectrometry (LC–MS)
- Assay type: ADME
- Design: dose 5 uM, timepoint 0, 1.5, 3, 6, 9, 12 hours
- Condition context: 5 µM
Measurement name: Bacterial Biotransformation

Some molecules with recorded Bacterial Biotransformation:
- Molecule: "CCOC(=O)C1=C(COCCN)NC(C)=C(C(=O)OC)C1c1ccccc1Cl (stereo unspecified)"
  Bacterial Biotransformation: "Compound NOT metabolized"
- Molecule: "C[C@H]1C[C@H]2[C@@H]3CCC4=CC(=O)C=C[C@]4(C)[C@@]3(F)[C@@H](O)C[C@]2(C)[C@@]1(O)C(=O)CO"
  Bacterial Biotransformation: "Compound NOT metabolized"
- Molecule: "CO[C@H]1C[C@@H]2CC[C@@H](C)[C@@](O)(O2)C(=O)C(=O)N2CCCC[C@H]2C(=O)O[C@H]([C@H](C)C[C@@H]2CC[C@@H](O)[C@H](OC)C2)CC(=O)[C@H](C)/C=C(\\C)[C@@H](O)[C@@H](OC)C(=O)[C@H](C)C[C@H](C)/C=C/C=C/C=C/1C"
  Bacterial Biotransformation: "Compound NOT metabolized"
- Molecule: "C[C@]12CCC(=O)C=C1CC[C@@H]1[C@@H]2C(=O)C[C@@]2(C)[C@H]1CC[C@]2(O)C(=O)CO"
  Bacterial Biotransformation: "Compound NOT metabolized"

Shift focus to the following entry.
# input Give the reported Bacterial Biotransformation for this molecule. C[C@H]1C[C@@H]2[C@H]([C@@H](O)C[C@@]3(C)[C@H]2CC[C@]3(O)C(=O)CO)[C@@]2(C)C=CC(=O)C=C12
# output Compound NOT metabolized
